Target: eTau2 (UniProt P10636)
Assay: relative binding affinity, method not named; eTau 2
pKd: −log10 of the molar value.

{"Binder": "humanized IPN002 variant VH4/Vk3 (antibody, V domains shown) VH: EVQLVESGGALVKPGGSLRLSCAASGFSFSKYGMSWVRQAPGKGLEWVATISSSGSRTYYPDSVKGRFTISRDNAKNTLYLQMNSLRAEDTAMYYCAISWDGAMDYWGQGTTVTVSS VL: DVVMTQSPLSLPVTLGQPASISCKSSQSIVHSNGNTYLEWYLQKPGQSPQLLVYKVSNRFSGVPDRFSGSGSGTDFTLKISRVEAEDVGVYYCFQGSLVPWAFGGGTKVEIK", "pKd": 9.33}
{"Binder": "humanized IPN002 variant VH4/Vk1 (antibody, V domains shown) VH: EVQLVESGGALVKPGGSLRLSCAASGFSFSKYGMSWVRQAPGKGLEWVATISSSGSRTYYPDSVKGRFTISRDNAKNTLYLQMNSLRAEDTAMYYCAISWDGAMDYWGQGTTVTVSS VL: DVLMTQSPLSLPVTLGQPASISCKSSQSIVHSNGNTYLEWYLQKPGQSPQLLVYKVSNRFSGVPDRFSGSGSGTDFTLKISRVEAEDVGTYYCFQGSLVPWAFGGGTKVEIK", "pKd": 9.39}
{"Binder": "humanized IPN002 variant VH2/Vk4 (antibody, V domains shown) VH: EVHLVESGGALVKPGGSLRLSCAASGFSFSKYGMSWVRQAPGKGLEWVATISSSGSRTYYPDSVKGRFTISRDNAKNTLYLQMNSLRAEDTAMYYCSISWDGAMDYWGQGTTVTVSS VL: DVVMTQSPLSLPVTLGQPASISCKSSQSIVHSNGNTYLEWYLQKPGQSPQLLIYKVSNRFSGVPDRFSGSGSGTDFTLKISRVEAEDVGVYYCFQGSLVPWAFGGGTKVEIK", "pKd": 9.45}
{"Binder": "humanized IPN002 variant VH3/Vk4 (antibody, V domains shown) VH: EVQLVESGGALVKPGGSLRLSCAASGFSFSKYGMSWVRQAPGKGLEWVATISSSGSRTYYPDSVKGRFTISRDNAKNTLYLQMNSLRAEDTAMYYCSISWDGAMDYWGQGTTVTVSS VL: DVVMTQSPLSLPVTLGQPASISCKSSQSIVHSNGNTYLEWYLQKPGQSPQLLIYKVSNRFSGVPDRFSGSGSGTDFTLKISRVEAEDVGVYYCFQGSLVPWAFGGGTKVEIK", "pKd": 9.35}
{"Binder": "humanized IPN002 variant VH3/Vk1 (antibody, V domains shown) VH: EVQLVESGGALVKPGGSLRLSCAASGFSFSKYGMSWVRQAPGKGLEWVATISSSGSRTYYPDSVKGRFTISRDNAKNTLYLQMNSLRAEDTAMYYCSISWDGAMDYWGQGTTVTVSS VL: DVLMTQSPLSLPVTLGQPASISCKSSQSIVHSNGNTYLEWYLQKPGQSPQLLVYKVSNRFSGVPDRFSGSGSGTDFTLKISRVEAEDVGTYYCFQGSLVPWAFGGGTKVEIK", "pKd": 9.15}

The values you see were collected from patent US20150232544A1.
